test: reduction of polyQ htt aggregates in cells – imaging, exon1htt(103Q)mCFP cells, high-content imaging, primary screen (AID 483); details: exon1htt(103Q)mCFP cell line, aggregate imaging, at 2 µM; measured here: cell count, toxicity;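 note: compound exposure lasted 3 days before fixation; percent of the per-plate median nuclei count of sample wells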
Hi there, I'd appreciate the recorded nuclei count for every entry that follows.
Respond with the bare value in %.

Which nuclei count is reported for this compound? CS(=O)(=O)NCc1ccc(C(=O)NCc2ccccc2)cc1
104

Another compound to check: COC(=O)c1ccc(CNC(=O)COc2ccccc2Br)o1
110

Another compound to check: O=c1c2ccc(-c3nnc4n3-c3ccccc3SC4)cc2nc2n1CCCCC2
111

Another compound to check: CCN(CC)S(=O)(=O)c1ccc(C(=O)N2CCN=C2SCc2cccnc2)cc1
99.7

Another compound to check: CCCc1cc(=O)n2[nH]c(-c3ccc(Br)cc3)cc2n1
98.8

Another compound to check: CCCCC(NC(C)=O)c1nc2ccccc2n1CCC (configuration not stated)
82.4

Another compound to check: COC(=O)C1CCN(C(=O)CSc2nnc(-c3ccncc3)o2)CC1
59.8

Another compound to check: CCc1ccc(NC(=O)CS(=O)CC(=O)NC(C)CCc2ccco2)cc1 (configuration not stated)
94.8

Another compound to check: CC(C)(C)NS(=O)(=O)c1ccc(CCC(=O)O)cc1
82.6

Another compound to check: Cc1c(NC(=O)CN2c3cccc4cccc(c34)S2(=O)=O)c(=O)n(-c2ccccc2)n1C
103

Another compound to check: CC(C)(C)n1nnnc1C(c1cccs1)N1CCN(Cc2ccccc2)CC1 (configuration not stated)
100

Another compound to check: Cc1ccc(C)n1-c1ccc(-n2cnnn2)cc1
86.5

Another compound to check: CC(C)CCNC(=O)CCNS(=O)(=O)c1ccc(Cl)cc1
79.8

Another compound to check: Cc1ccc(S(=O)(=O)N2CCN(C(=O)CN3CCOCC3)C2C(C)C)cc1 (configuration not stated)
105

Another compound to check: Cc1cccc(OCC(=O)Nc2cc(C)ccc2O)c1
95.3

Another compound to check: Cc1ccc(C)c(N2CCN(CCCNC(=O)Cn3cc4c(n3)CCCCC4)CC2)c1
114

Another compound to check: CCOC(=O)CS(=O)(=O)c1nc(-c2ccccc2)cc(C(F)(F)F)n1
102

Another compound to check: OC1(c2cccc(C(F)(F)F)c2)CCNCC1
106

Another compound to check: CN(C)c1nc(Nc2ccc(Cl)cc2)nc(OCC#N)n1
78.6

Another compound to check: O=c1/c(=C/c2ccco2)sc2nc(-c3ccccc3Br)nn12
107

Another compound to check: CCOC(=O)C1CCCN(C(=O)c2cc(=O)c3ccccc3o2)C1 (configuration not stated)
114

Another compound to check: Cc1csc2nc(CSc3nc4ccccc4o3)c(Br)n12
98.3

Another compound to check: c1cc2c(cc1C1CCCN1)OCCCO2 (configuration not stated)
116

Another compound to check: CC(=O)c1c(OC(=O)c2ccco2)c2ccccc2n1C
72.8

Another compound to check: CN(C)S(=O)(=O)c1ccc2c(c1)C(CC(=O)O)OC2=O (configuration not stated)
109

Another compound to check: COc1ccc(NC(=O)Cn2nnc(-c3ccccc3F)n2)cc1Cl
92.6

Another compound to check: COc1ccc(C(=O)c2coc3ccc(O)c(CN4CCCCC4)c23)cc1
108

Another compound to check: O=C(COc1ccc(F)cc1)Nc1ccc(-n2cnnn2)cc1
90.5

Another compound to check: CCN(CC)S(=O)(=O)c1cccc(-c2nnc(SCCOc3ccccc3C)o2)c1
95.4

Another compound to check: CC(C)(C)c1nc(CN2CCOCC2)ccc1O
104

Another compound to check: CCCCN(Cc1cc2cc(OC)ccc2[nH]c1=O)C(=O)COc1ccccc1
117

Another compound to check: N#Cc1ccc(CSc2nnc(-c3cnccn3)o2)cc1
106

Another compound to check: Fc1cccc(Nc2ncnc3c2cnn3-c2ccccc2)c1
109

Another compound to check: C=CCNC(=O)C1CC(=O)N(c2ccc(OCC(=O)Nc3ccc(OC)cc3)cc2)C1 (configuration not stated)
104

Another compound to check: CS(=O)(=O)Nc1ccc(C(=O)NCCc2ccccc2)cc1
108

Another compound to check: O=C(CCC(=O)OCCCC(F)(F)C(F)(F)F)NC1CCCCC1
108

Another compound to check: CNC(=O)NCCN1CCCC1=O
111

Another compound to check: O=C(CSc1nnnn1C1CCCC1)N1CCN(C(=O)c2ccco2)CC1
105

Another compound to check: CCOC(=O)C1C(=O)NC(SCC(=O)Nc2nccs2)=C(C#N)C1c1ccccc1OCC (configuration not stated)
120

Another compound to check: CCCn1c(SCC(=O)N2CCc3ccccc3C2)nc2c1c(=O)n(C)c(=O)n2C
115

Another compound to check: COc1cccc(C(=O)Nc2cc(NC(=O)c3ccco3)ccc2OC)c1
88.1

Another compound to check: Cn1c(=O)cc(SCC(=O)NCc2cccnc2)c2ccccc21
104

Another compound to check: O=S(=O)(c1ccc2c(c1)OCCO2)N1CCC(n2nnc3cc(F)ccc32)CC1
78

Another compound to check: COc1ccc(/C=N/O)cc1COc1ccc(NC(C)=O)cc1
113

Another compound to check: COc1ccc(NC(=O)c2ccco2)cc1NC(=O)c1cccs1
95.9

Another compound to check: CSc1nc2c(ccc3ccccc32)o1
104

Another compound to check: O=S(=O)(Nc1cccnc1)c1ccc2c(c1)OCCO2
88.2
